Biological target: rh-AChE (Homo sapiens, UniProt P22303)
Sequence (P22303 32-614): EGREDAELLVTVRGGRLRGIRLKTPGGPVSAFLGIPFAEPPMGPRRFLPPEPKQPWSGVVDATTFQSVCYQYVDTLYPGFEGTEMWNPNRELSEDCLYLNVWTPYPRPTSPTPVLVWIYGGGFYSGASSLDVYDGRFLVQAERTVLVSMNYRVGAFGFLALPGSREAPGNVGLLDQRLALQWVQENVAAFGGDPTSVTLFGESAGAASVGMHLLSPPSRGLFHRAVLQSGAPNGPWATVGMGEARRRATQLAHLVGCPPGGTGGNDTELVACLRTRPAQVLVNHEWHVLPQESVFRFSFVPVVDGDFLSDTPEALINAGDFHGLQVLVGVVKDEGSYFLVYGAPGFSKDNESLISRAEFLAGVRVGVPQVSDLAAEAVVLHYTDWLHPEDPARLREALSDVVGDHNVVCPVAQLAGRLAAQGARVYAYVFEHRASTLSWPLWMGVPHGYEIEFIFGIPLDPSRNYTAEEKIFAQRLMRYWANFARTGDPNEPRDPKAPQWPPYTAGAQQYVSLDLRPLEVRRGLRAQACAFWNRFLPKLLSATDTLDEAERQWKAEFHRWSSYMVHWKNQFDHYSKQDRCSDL
Assay: biochemical
Details: read-out: IC50 rh-AChE
pIC50: −log10 of the molar value.
Outcome label depends on pIC50 relative to 8: at/above gives rule met, below gives rule not met.

Form field: pIC50 at least 8? Entry: Nc1c2c(nc3cc(Cl)ccc13)CC1C=C(CCCCn3cc(COC(=O)C(F)(F)F)nn3)CC2C1 (stereo not shown) [HUP 35]
rule not met

Form field: pIC50 at least 8? Entry: Nc1c2c(nc3cc(Cl)ccc13)CC1C=C(CCF)CC2C1 (stereo not shown) [HUP 10]
rule met

Form field: pIC50 at least 8? Entry: C=C1c2nc3cc(Cl)ccc3c(N)c2C2CC(CCCC(=O)OCC)=CC1C2 (stereo not shown) [HUP 36]
rule not met

Form field: pIC50 at least 8? Entry: [N-]=[N+]=NCCC1=CC2Cc3nc4cc(Cl)ccc4c(N)c3C(C1)C2 (stereo not shown) [HUP 12]
rule met

Form field: pIC50 at least 8? Entry: C[N+](C)(C)CCC1=CC2Cc3nc4cc(Cl)ccc4c(N)c3C(C1)C2 (stereo not shown) [HUP 25, Ditrifluoroacetic Acid]
rule not met

Form field: pIC50 at least 8? Entry: Nc1c2c(nc3cc(Cl)ccc13)CC1C=C(CCCl)CC2C1 (stereo not shown) [HUP 9, Trifluoroacetic Acid]
rule met

Form field: pIC50 at least 8? Entry: Nc1c2c(nc3cc(Cl)ccc13)CC1C=C(CCn3cc(CO)nn3)CC2C1 (stereo not shown) [HUP 23, Trifluoroacetic Acid]
rule not met

Form field: pIC50 at least 8? Entry: Nc1c2c(nc3cc(Cl)ccc13)CC1C=C(CCNO)CC2C1 (stereo not shown) [HUP 15, Ditrifluoroacetic Acid]
rule not met

Form field: pIC50 at least 8? Entry: CN(C)C(=O)CC1=CC2Cc3nc4cc(Cl)ccc4c(N)c3C(C1)C2 (stereo not shown) [HUP 19, Trifluoroacetic Acid]
rule not met

Form field: pIC50 at least 8? Entry: NC(=O)CC1=CC2Cc3nc4cc(Cl)ccc4c(N)c3C(C1)C2 (stereo not shown) [HUP 20, Trifluoroacetic Acid]
rule not met

---

Target: rh-AChE (Homo sapiens)
Test: biochemical
Conditions: read-out: IC50 rh-AChE
Assign pIC50 to each entry below.
One number for each entry, as −log10 of the molar value.

Illustrative cases are given below, each with its answer.
Nc1c2c(nc3cc(Cl)ccc13)CC1C=C(CCI)CC2C1 (stereo not drawn)
8.57
C=CC(=O)OCCC1=CC2Cc3nc4cc(Cl)ccc4c(N)c3C(C1)C2 (stereo not drawn)
7.69
CS(=O)(=O)OCCC1=CC2Cc3nc4cc(Cl)ccc4c(N)c3C(C1)C2 (stereo not drawn)
8.07

// each molecule listed below needs its pIC50
1. CS(=O)(=O)OCCC1=CC2Cc3nc4ccccc4c(N)c3C(C1)C2 (stereo not drawn)
2. CC(=O)OCCC1=CC2Cc3nc4cc(Cl)ccc4c(N)c3C(C1)C2 (stereo not drawn)
3. COC(=O)c1cn(CCCCC2=CC3Cc4nc5cc(Cl)ccc5c(N)c4C(C2)C3)nn1 (stereo not drawn)
4. CS(=O)(=O)OCCCCC1=CC2Cc3nc4cc(Cl)ccc4c(N)c3C(C1)C2 (stereo not drawn)
5. COC(=O)c1cn(CCC2=CC3Cc4nc5cc(Cl)ccc5c(N)c4C(C2)C3)nn1 (stereo not drawn)
6. C=CC1=CC2Cc3nc4cc(Cl)ccc4c(N)c3C(C1)C2 (stereo not drawn)

1. 6.83
2. 8.84
3. 9.47
4. 8.32
5. 6.89
6. 8.88
